PMM TC50 overview
# System: PMM (primary mouse macrophages)
# Measurement Notes: Toxicity against PMM
# Type: cell-based
Your answer is read as µg/mL, so omit the unit and give the number.

CCCCN(Cc1c(-c2ccccc2)nc2ccc(C)cn12)c1cccc(C(F)(F)F)c1; 3.5

Complete the entry with PMM TC50 for Fc1ccc(N(CC2CC2)c2c(-c3ccccn3)nc3ccccn23)cc1
1.4

Complete the entry with PMM TC50 for Cc1ccn2c(CN(CC(C)C)c3cccc(C(F)(F)F)c3)c(-c3ccccn3)nc2c1
14.0

Complete the entry with PMM TC50 for COc1ccn2c(Nc3ccccc3F)c(-c3cnn(C)c3)nc2c1
21.6

Complete the entry with PMM TC50 for N#Cc1ccc(-n2c(-c3ccccn3)nc3ccccc32)cc1
19.0

Complete the entry with PMM TC50 for Fc1ccc(NCc2c(-c3ccccn3)nc3ccccn23)cc1
20.4

Complete the entry with PMM TC50 for CC(=O)N(c1ccc(F)cc1)c1c(-c2ccccn2)nc2ccccn12
22.2

Complete the entry with PMM TC50 for c1ccc(-c2nc3n(c2-c2ccncc2)CCC3)nc1
16.8

Complete the entry with PMM TC50 for CC(C)CN(c1ccc(F)cc1)c1c(-c2ccccn2)nc2ccccn12
8.3

Complete the entry with PMM TC50 for Cc1ccc2nc(-c3ccccc3)c(CNc3ccc(F)cc3)n2c1
21.2

Complete the entry with PMM TC50 for c1ccc(-c2nc3ccccc3n2-c2ccc3occc3c2)nc1
12.0

Complete the entry with PMM TC50 for c1ccc(Cn2c(-c3ccccn3)nc3ccccc32)cc1
18.3

Complete the entry with PMM TC50 for COc1ccc2nc(-c3ccccn3)c(N(C)c3ccc(F)cc3)n2c1
2.8

Complete the entry with PMM TC50 for N#Cc1ccc(-c2c(-c3ccccn3)nc3n2CCC3)cc1C(F)(F)F
22.7

Complete the entry with PMM TC50 for N#Cc1ccc(-c2c(-c3ccccn3)nc3n2CCC3)cn1
18.4

Complete the entry with PMM TC50 for Fc1ccc(-c2c(-c3ccccn3)nc3ccccn23)cc1
9.3

Complete the entry with PMM TC50 for COc1cc(-c2c(-c3ccccn3)nc3n2CCC3)ccc1C#N
20.2

---

hepatocyte CLint overview
# Measurement Notes: Rat hepatocyte intrinsic clearance
# Type: in vitro ADME
# Experimental Context: rat hepatocytes, NEU; read-out: Rat Hep CLint (NEU)

Complete the entry with hepatocyte CLint for COc1cccn2c(N(C)c3ccc(F)cc3)c(-c3ccccn3)nc12 [OSA_001001]
> 300 µL/min/1e6 cells

Complete the entry with hepatocyte CLint for c1ccc(-c2nc3n(c2-c2ccc4occc4c2)CCC3)cc1 [OSA_000869]
34.5 µL/min/1e6 cells

Complete the entry with hepatocyte CLint for Cc1ccc(Nc2c(-c3ccccn3)nc3ccccn23)cc1 [OSA_000988]
> 300 µL/min/1e6 cells

Complete the entry with hepatocyte CLint for CN(c1ccc(F)cc1)c1c(-c2ccccn2)nc2ccc(Br)cn12 [OSA_001003]
> 300 µL/min/1e6 cells

Complete the entry with hepatocyte CLint for COc1ccnc(-c2nc3ccccn3c2N(C)c2ccc(F)cc2)c1 [OSA_001007]
> 300 µL/min/1e6 cells

---

# Measurement Notes: LogD7.4 (Chrom Log D)
# Assay type: physicochemical
# Experimental Context: chromatographic system (Chrom Log D); pH 7.4, NEU; read-out: LogD 7.4 (NEU)
chromatographic logD overview

Complete the entry with chromatographic logD for CN(c1ccc(F)cc1)c1c(-c2ccccn2)nc2c(F)cccn12
3.3

Complete the entry with chromatographic logD for COc1ccn2c(-c3ccccc3)c(-c3ccccn3)nc2c1
3.1

Complete the entry with chromatographic logD for COc1ccn2c(-c3cccc(Cl)n3)c(-c3ccccn3)nc2c1
2.5

Complete the entry with chromatographic logD for COc1cccc(-c2nc3ccccn3c2N(CC(C)C)c2ccc(F)cc2)n1
> 3.7

Complete the entry with chromatographic logD for c1cc(-c2nc3n(c2-c2ccc4occc4c2)CCC3)ccn1
3.2

Complete the entry with chromatographic logD for CC(C)CN(c1ccc(F)cc1)c1c(-c2ccccn2)nc2cc(F)ccn12
4.3

---

microsomal CLint at 1 µM overview
# Measurement Notes: In vitro metabolic stability, rat liver microsomes (Monash)
# Assay type: in vitro ADME
# Experimental Context: NADPH, read-out: CLint, in vitro
Number first, unit second: that is the form wanted.

c1ccc(-c2nc3n(c2-c2ccc4c(c2)OCO4)CCC3)nc1; 59 µL/min/mg

Complete the entry with microsomal CLint at 1 µM for c1ccc(-c2nc3n(c2-c2ccc4sccc4c2)CCC3)nc1
503 µL/min/mg

---

# Measurement Notes: Aqueous solubility
# Format: physicochemical
# Experimental Context: thermodynamic from solid; read-out: Aqueous Solubility
Decide by solubility: equal to or exceeding 200 µM means condition met, less means condition not met.

Fc1ccc(-c2c(-c3ccccn3)nc3ccccn23)cc1 [compound 859]; condition not met
CN(C)C(=O)c1ccc(-c2c(-c3ccccn3)nc3n2CCC3)cc1 [compound 974]; condition met
Cc1ccc(-c2c(-c3ccccn3)nc3ccccn23)cc1 [compound 1018]; condition not met
Cc1ccc(-c2c(-c3ccccn3)nc3n2CCC3)cc1 [compound 865]; condition not met
CS(=O)(=O)c1ccc(-c2c(-c3ccccn3)nc3n2CCC3)cc1 [compound 837]; condition met
c1ccc(-c2nc3n(c2-c2ccc4sccc4c2)CCC3)nc1 [compound 822]; condition not met
Cc1ccc(-c2c(-c3ccccn3)nc3cc(Cl)ccn23)cc1 [compound 978]; condition not met
CCCN(c1ccc(F)cc1)c1c(-c2ccccn2)nc2ccccn12 [compound 982]; condition not met
CC(C)CN(c1ccc(F)cc1)c1c(-c2ccccn2)nc2ccccn12 [compound 983]; condition not met
N#Cc1ccc(-c2c(-c3ccccn3)nc3n2CCC3)cc1 [compound 975]; condition not met

Kindly consider the entry below.
Could you please find out whether C[S+]([O-])c1ccc(-c2c(-c3ccccn3)nc3n2CCC3)cc1 (centres unmarked) [compound 838] has solubility that meets 200 µM or exceeds it?
condition met

---

# Test system: Enterococcus faecalis ATCC 51299 (vanA-positive; vancomycin-resistant)
# Measurement Notes: In vitro antibacterial activity, MIC (UCL), VRE
# Format: cell-based
VRE MIC overview

c1ccc(-c2nc3ccccc3n2-c2ccc3occc3c2)nc1 [compound 991]; > 32 mg/L

Complete the entry with VRE MIC for COc1ccn2c(Nc3ccccc3F)c(-c3cnn(C)c3)nc2c1 [compound 855]
> 32 mg/L

Complete the entry with VRE MIC for NC(=O)c1ccc(-n2c(-c3ccccn3)nc3ccccc32)cc1 [compound 989]
> 32 mg/L

Complete the entry with VRE MIC for COc1ccn2c(Nc3ccnc(C)c3)c(-c3ccccn3)nc2c1 [compound 854]
> 32 mg/L

Complete the entry with VRE MIC for Fc1ccc(N(CC2CC2)c2c(-c3ccccn3)nc3ccccn23)cc1 [compound 979]
4 mg/L

Complete the entry with VRE MIC for CN(C)Cc1ccc2nc(-c3ccccn3)c(Nc3cccc(F)c3)n2c1 [compound 844]
> 32 mg/L

Complete the entry with VRE MIC for COc1ccn2c(Nc3cccc(F)c3)c(-c3cn(C)cn3)nc2c1 [compound 848]
> 32 mg/L

Complete the entry with VRE MIC for Cc1ccc2nc(-c3ccccn3)c(Nc3ccc4c(c3)OCCO4)n2c1 [compound 841]
16 mg/L

---

# Measurement Notes: Human plasma protein binding (PPB)
# Assay type: in vitro ADME
# Experimental Context: human, plasma, human plasma, NEU; read-out: Human PPB (%) (NEU) (converted)
Property Label: fraction unbound
// return a plain number; no unit text

CC(=O)N(c1ccc(F)cc1)c1c(-c2ccccn2)nc2ccccn12; 0.17
CS(=O)(=O)c1ccc2nc(-c3ccccn3)c(Nc3ccc(F)cc3)n2c1; 0.11
CC(C)CN(c1ccc(F)cc1)c1c(-c2ccccn2)nc2cc(F)ccn12; 0.0023

Proceed to the following item.
Complete the entry with fraction unbound for CC(C)CN(c1ccc(F)cc1)c1c(-c2ccccn2)nc2ccc(F)cn12
0.0014

---

solubility overview
# Measurement Notes: Aqueous solubility
# Format: physicochemical
# Experimental Context: thermodynamic from solid; NEU; read-out: Aqueous Solubility (NEU)
Number first, unit second: that is the form wanted.

COc1ccn2c(Nc3ccccc3F)c(-c3cnn(C)c3)nc2c1; 22 µM

Proceed to the following item.
Complete the entry with solubility for c1ccc(-c2nc3ccccn3c2-c2ccc3sccc3c2)nc1
6 µM

---

# Measurement Notes: Kinetic solubility estimation using nephelometry (Monash)
# Assay type: physicochemical
# Experimental Context: 0.01 M HCl, simulated gastric fluid, kinetic from dmso stock; pH 2.0; read-out: Sol (pH 2.0) (Monash)
Property Label: solubility kinetic at 30 min

c1ccc(-c2nc3ccccn3c2-c2ccc3c(c2)OCO3)nc1 [OSA_000814]; > 0.1 mg/mL
c1ccc(-c2nc3n(c2-c2ccc4c(c2)OCO4)CCS3)nc1 [OSA_000813]; 0.025 to 0.05 mg/mL
c1ccc(-c2nc3n(c2-c2ccc4occc4c2)CCC3)nc1 [compound 821]; > 0.1 mg/mL

Complete the entry with solubility kinetic at 30 min for c1ccc(-c2nc3n(c2-c2ccc4sccc4c2)CCC3)nc1 [OSA_000822]
0.05 to 0.1 mg/mL

Complete the entry with solubility kinetic at 30 min for c1ccc(-c2nc3n(c2-c2ccc4c(c2)OCO4)CCC3)nc1 [OSA_000812]
> 0.1 mg/mL
